System: Brain
Experiment: Antioxidant activity in Wistar rat brain assessed as inhibition of lipid peroxidation
Assay type: functional, tissue-based
Items are presented alongside their recorded EC50.
Readout Label: EC50

# Compound, Readout Label, Observed Value
rows = [
    ("O=C1O[C@H]([C@@H](O)CO)C(O)=C1O", "EC50", "1.02 µg/mL"),
    ("COc1ccc2c3c1O[C@H]1C[C@@H](OP(=O)(Oc4ccc([N+](=O)[O-])cc4)OP(=O)(O)O)C=C[C@@]31CCN(C)C2 (some centres undefined)", "EC50", "3.33 µg/mL"),
    ("COc1ccc2c3c1O[C@H]1C[C@@H](O)C=C[C@@]31CCN(C)C2", "EC50", "4.93 µg/mL"),
    ("COc1ccc2c3c1O[C@H]1C[C@@H](OP(=O)(NCCN)Oc4ccc([N+](=O)[O-])cc4)C=C[C@@]31CCN(C)C2 (some centres undefined)", "EC50", "1.99 µg/mL"),
]

Reference source: ChEMBL document CHEMBL1154647
